molecular target: Inosine-5'-monophosphate dehydrogenase (Cryptosporidium parvum); assay: Inhibition of Cryptosporidium parvum IMPDH assessed as reduction in NADH production
Sequence (Q8T6T2 whole entry): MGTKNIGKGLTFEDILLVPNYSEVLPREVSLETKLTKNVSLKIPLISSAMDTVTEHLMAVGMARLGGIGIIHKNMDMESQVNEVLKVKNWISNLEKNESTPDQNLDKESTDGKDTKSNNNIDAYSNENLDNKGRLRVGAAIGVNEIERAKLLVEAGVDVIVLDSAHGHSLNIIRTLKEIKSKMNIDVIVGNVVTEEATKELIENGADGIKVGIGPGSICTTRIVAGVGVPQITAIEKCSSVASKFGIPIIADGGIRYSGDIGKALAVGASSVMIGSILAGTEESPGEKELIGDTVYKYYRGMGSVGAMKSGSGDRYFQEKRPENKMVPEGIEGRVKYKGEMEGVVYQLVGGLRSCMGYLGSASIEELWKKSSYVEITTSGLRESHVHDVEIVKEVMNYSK
pIC50: −log10 of the molar value.
assay-readout: pIC50

                           structure_string  measurement
0  O=C(Cn1ncc2c(=O)oc3ccccc3c21)Nc1ccc2ncccc2c1         7.10
1  O=C(Cn1ncc2c(=O)oc3ccccc3c21)Nc1ccc(Cl)cc1Cl       < 5.30
2  COc1cc(NC(=O)Cn2ncc3c(=O)oc4ccccc4c32)ccc1Cl         7.70

Qu. Name the recorded pIC50 of "O=C(Cn1ncc2c(=O)oc3ccccc3c21)Nc1ccc2[nH]ccc2c1" , assay system Inosine-5'-monophosphate dehydrogenase (Cryptosporidium parvum).
Ans. < 5.30

Qu. Name the recorded pIC50 of "COc1cc(N(C)C(=O)Cn2ncc3c(=O)oc4ccccc4c32)ccc1Cl" , assay system Inosine-5'-monophosphate dehydrogenase (Cryptosporidium parvum).
Ans. < 5.30

Qu. Name the recorded pIC50 of "O=C(Cn1ncc2c(=O)oc3ccccc3c21)Nc1ccccc1Cl" , assay system Inosine-5'-monophosphate dehydrogenase (Cryptosporidium parvum).
Ans. < 5.30

###

molecular target: UniProt:Q8T6T2; test: Inhibition of Cryptosporidium parvum IMPDH assessed as reduction in NADH production
Lab note: anything with IC50 below 100 nM is marked Criterion met; values at 100 nM or higher are marked Criterion not met.

                                   compound              class
0  O=C(Cn1ncc2c(=O)oc3ccccc3c21)Nc1cccc(Cl)c1  Criterion not met
1  COc1cc(NC(=O)Cn2ncc3c(=O)oc4cc(C)ccc4c32)ccc1Cl  Criterion not met
2  COc1cc(NC(=O)C(C)n2ncc3c(=O)oc4ccccc4c32)ccc1Cl (centres undefined)      Criterion met
3  COc1cccc(NC(=O)Cn2ncc3c(=O)oc4ccccc4c32)c1  Criterion not met
4  O=C(Cn1ncc2c(=O)oc3ccccc3c21)Nc1ccc2ccccc2c1      Criterion met

Qu. Identify whether the compound "COc1ccc(NC(=O)Cn2ncc3c(=O)oc4ccccc4c32)cc1OC" records IC50 below 100 nM.
Ans. Criterion not met

Qu. Identify whether the compound "O=C(Cn1ncc2c(=O)oc3ccccc3c21)Nc1ccc2c(c1)OCCO2" records IC50 below 100 nM.
Ans. Criterion not met

Qu. Identify whether the compound "O=C(Cn1ncc2c(=O)oc3ccccc3c21)Nc1ccc(C(F)(F)F)cc1" records IC50 below 100 nM.
Ans. Criterion not met

Qu. Identify whether the compound "COc1cc(NC(=O)Cn2ncc3c2-c2ccccc2OC3)ccc1Cl" records IC50 below 100 nM.
Ans. Criterion met

Qu. Identify whether the compound "O=C(Cn1ncc2c(=O)oc3ccccc3c21)Nc1ccc(F)cc1" records IC50 below 100 nM.
Ans. Criterion not met

Qu. Identify whether the compound "O=C(Cn1ncc2c(=O)oc3ccccc3c21)Nc1ccc2cc[nH]c2c1" records IC50 below 100 nM.
Ans. Criterion not met

Qu. Identify whether the compound "O=C(Cn1ncc2c(=O)oc3ccccc3c21)Nc1ccc2[nH]cnc2c1" records IC50 below 100 nM.
Ans. Criterion not met

Qu. Identify whether the compound "O=C(Cn1ncc2c(=O)oc3ccccc3c21)Nc1ccc(Cl)c(Cl)c1" records IC50 below 100 nM.
Ans. Criterion met
